Molecular target: T1, mFc tagged human LAG3 ECD recombinant protein (human, UniProt P18627 23-450)
T1 construct: extracellular domain; purchased from Biointron; not shown: mouse IgG Fc (mFc) tag
T1 sequence (looked up): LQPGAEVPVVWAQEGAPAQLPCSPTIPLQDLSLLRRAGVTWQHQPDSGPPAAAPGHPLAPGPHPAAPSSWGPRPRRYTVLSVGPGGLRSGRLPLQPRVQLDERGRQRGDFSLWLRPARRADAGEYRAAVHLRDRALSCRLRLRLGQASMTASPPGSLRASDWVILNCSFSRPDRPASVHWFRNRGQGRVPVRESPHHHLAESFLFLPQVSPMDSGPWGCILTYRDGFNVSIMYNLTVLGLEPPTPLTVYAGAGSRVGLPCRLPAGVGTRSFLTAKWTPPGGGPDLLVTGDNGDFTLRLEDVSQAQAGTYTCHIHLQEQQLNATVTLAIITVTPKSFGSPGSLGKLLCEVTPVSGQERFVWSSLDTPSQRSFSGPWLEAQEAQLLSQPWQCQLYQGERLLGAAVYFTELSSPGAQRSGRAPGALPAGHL
Test: competitive FACS: mFc-LAG3 ECD binding to Raji cells (MHC II)
Experimental: Activity of the purified chimeric antibodies to block LAG3 and MHC II interaction was determined by competitive FACS assay. […] After washing, dye labeled anti-mouse Fc 2nd antibody (Sigma) was added and incubated at 37° C. for 1 hour. Fluorescence intensity was detected.
Catalogue of binders with associated IC50

binder: 039c (antibody, human IgG4, V domains shown, human IgG4 S228P / kappa chimeric antibody; also called chimeric antibody 039; not shown: human kappa light chain constant region (pcDNA3.4-hIgGk vector)) VH: EFQLQQSGPELVKPGASVKISCKASGYSFTDYNLNWVRQSNGKSLEWIGLVDPIYGTIRYNQNFKDKATLTVDQSSSTAYMQLNSLTSEDSAVYYCASIMTAVRYFDHWGQGTTLTVSS VL: DVLMTQTPLFLPVSLGDQASISCRSSLNIVHSDGNTYLEWYLQKPGQSPKLLIYKVSNRFSGVPDRFSGSGSGTDFTLKISGVEAEDLGVYYCFQGSHVPPTFGGGTKLEIK
unit-of-measurement: nM
IC50: 4.7
//
binder: 035c (antibody, human IgG4, V domains shown, human IgG4 S228P / kappa chimeric antibody; also called chimeric antibody 035; not shown: human kappa light chain constant region (pcDNA3.4-hIgGk vector)) VH: QVQLQQSGAELARPGASVKLSCKASGYSFTSYGINWVKQRTGQGLEWIGEIYPRSGNTYYNEKFKDKATLTADKSSSTAYMELRSLTSEDSAVYFCARGGTYDGYYYAMDFWGQGTSVTVSS VL: DIVLTQSPASLAVSLGQRATISCRASESVDNFGSSFLHWYQQKPGQAPKLLIYRASNLESGIPARFSGSGSRTDFTLTINPVETDDVATYYCQQVNKDPRTFGGGTKLEIK
unit-of-measurement: nM
IC50: 4.3
//
binder: 023c (antibody, human IgG4, V domains shown, human IgG4 S228P / kappa chimeric antibody; also called chimeric antibody 023; ES005-023c; not shown: human kappa light chain constant region (pcDNA3.4-hIgGk vector)) VH: QIQLVQSGPVLKKPGETVKISCKASGYTFTESPMNWVKQAPGRGFKWMGMIYTDTGEPTYAEEFKGRFAFSLETSASTAYLQINNLKSEDTATYFCVSDYGSILYWYFDVWGTGTTVTVSS VL: DIVMTQSHKFMSTSVGDRVSITCKASQDVSTAVAWYQQTPGQSPKLLIYSASYRYTGVPDRFTGSGSGTDFTFTISSVQAEDLAVYYCQQHYNSPPTFGAGTKLELK
unit-of-measurement: nM
IC50: 3.7
//
binder: 029c (antibody, human IgG4, V domains shown, human IgG4 S228P / kappa chimeric antibody; also called chimeric antibody 029; not shown: human kappa light chain constant region (pcDNA3.4-hIgGk vector)) VH: DVKLVESGEDLVKPGGSLKLSCAASGFTFSSYAMSWVRQTPEKRLEWVAYVTSGGDYIYYADTVKGRFTISRDDVRNTLYLQMSSLKSEDTAMYYCTRVAYDYEWYFDVWGTGAPVTVSS VL: DIVMTQSHKFMSTSVGDRVSITCKASQDVTTAVAWYQQKPGQSPKLLIYSASYRYTGVSDRFTGSGSGTDFTFTISSVQAEDLALYYCQQHDSSPWTFGGGTKLEIK
unit-of-measurement: nM
IC50: 4.2
